B1: Probable E3 ubiquitin-protein ligase MID2, residues 191 to 235; numbered along this chain, Q9UJV3 (parent)
chain: RGITCLDHENEKVNMYCVSDDQLICALCKLVGRHRDHQVASLNDR

# Variants of: B1
# PROTOCOL: abundance fitness (aPCA) (normalised: wild type 0, dead -1); higher = more abundant; growth selection in yeast, the domain comes from the species named
# ASSAY CONTEXT: Homo sapiens
The label depends only on abundance fitness: true if it is at least -0.4, false if it is smaller.

Would you please look over these solved cases?
VARIANT DESIGNATION: N43I
CLASS: true

VARIANT DESIGNATION: A26G
CLASS: true

VARIANT DESIGNATION: M15R
CLASS: true

VARIANT DESIGNATION: I24M
CLASS: true

VARIANT DESIGNATION: S19L
CLASS: true

# bool: abundance fitness of V31G >= -0.4
true

Test whether the variant D7M records abundance fitness of -0.4 or higher.
true

I'd appreciate it if you could say whether A40N has abundance fitness at least equal to -0.4.
true

Identify whether the reported abundance fitness of the following variant is -0.4 or greater: C5Q
false
